Exercise: state measured normalized growth for each of the compounds provided.
# EXPERIMENT_NOTES: chemical genetic growth profiling, strain panel (AID 1159580);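 further: tested at 20 µM; growth read once vehicle control cultures reached saturation at 30 °C; 1 = growth at the plate median or of vehicle wells; lower values mean less growth of the strain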
# APPLIED_CONDITIONS: S. cerevisiae deletion strains, growth OD, locus YKR026C, strain gcn3, hits give low values
Screen size: about 5,500 compounds; about 2,000 (36%) were called active. Roughly 18% stayed inconclusive and do not appear here. This is one part of the list.
Keep the answer to the number alone.

Task item: Suppose we examine the compound O=c1ccc2c(O)c3ccoc3cc2o1 ; what normalized growth value has been reported?
Reply: 0.986

Task item: Suppose we examine the compound CCc1cc(C(N)=S)ccn1 ; what normalized growth value has been reported?
Reply: 1

Task item: Suppose we examine the compound CO[C@@]1(NC(=O)C(C(=O)O)c2ccc(O)cc2)C(=O)N2C(C(=O)O)=C(CSc3nnnn3C)CO[C@@H]21 (some centres not stated) ; what normalized growth value has been reported?
Reply: 0.998

Task item: Suppose we examine the compound O=c1c(O)c(-c2ccc(O)c(O)c2)oc2c(O[C@@H]3O[C@H](CO)[C@H](O)[C@@H](O)[C@H]3O)c(O)cc(O)c12 ; what normalized growth value has been reported?
Reply: 1.01

Task item: Suppose we examine the compound CCCCCCC(C)OC(=O)COc1ccc(Cl)cc1Cl (configuration not stated) ; what normalized growth value has been reported?
Reply: 0.989

Task item: Suppose we examine the compound CC1O[C@@H](Oc2c(-c3ccc(O)c(O)c3)oc3cc(O)cc(O)c3c2=O)[C@H](O)[C@H](O)[C@H]1O (some centres not stated) ; what normalized growth value has been reported?
Reply: 0.983

Task item: Suppose we examine the compound CNC(=O)Oc1cccc2c1OC(C)(C)O2 ; what normalized growth value has been reported?
Reply: 1

###

# EXPERIMENT_NOTES: chemical genetic growth profiling, strain panel (AID 1159580);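 further: tested at 20 µM; growth read once vehicle control cultures reached saturation at 30 °C; 1 = growth at the plate median or of vehicle wells; lower values mean less growth of the strain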
# APPLIED_CONDITIONS: S. cerevisiae deletion strains, growth OD, locus YDR150W, strain NUM1, hits give low values
The whole screen tested about 5,500 compounds, of which about 2,000 (36%) were called active. Not shown: some 18% with an inconclusive outcome. This is one part of the list.
Exercise: state measured normalized growth for each of the compounds provided.
Keep the answer to the number alone.

Task item: Suppose we examine the compound CCOC(=O)c1sc(SC(C)C)c2c1CCCC2=O ; what normalized growth value has been reported?
Reply: 1.06

Task item: Suppose we examine the compound Nc1nc(Nc2ccccc2)nc2c1ncn2[C@@H]1O[C@H](CO)[C@H](O)C1O (stereo partly drawn) ; what normalized growth value has been reported?
Reply: 0.999

Task item: Suppose we examine the compound Cc1ccc(/C=C2\CCc3ccccc3C2=O)o1 ; what normalized growth value has been reported?
Reply: 0.563

###

Exercise: state measured normalized growth for each of the compounds provided.
# EXPERIMENT_NOTES: chemical genetic growth profiling, strain panel (AID 1159580);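 further: tested at 20 µM; growth read once vehicle control cultures reached saturation at 30 °C; 1 = growth at the plate median or of vehicle wells; lower values mean less growth of the strain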
# APPLIED_CONDITIONS: S. cerevisiae deletion strains, growth OD, locus YNL067W, strain RPL9B, hits give low values
Among all 5,500 compounds or so, about 2,000 (36%) were called active. Another 18% or so got no clear call; they are omitted. Some of the results follow.
Keep the answer to the number alone.

Task item: Suppose we examine the compound CC1CCC2(OC1)OC1CC3C4CC[C@H]5C[C@@H](O)CC[C@]5(C)C4CC(=O)[C@]3(C)C1C2C (stereo partly drawn) ; what normalized growth value has been reported?
Reply: 0.991

Task item: Suppose we examine the compound O=c1cc(-c2ccc(O)cc2)oc2cc(O[C@@H]3O[C@H](CO)[C@@H](O)[C@H](O)[C@H]3O)cc(O)c12 ; what normalized growth value has been reported?
Reply: 1.01

Task item: Suppose we examine the compound CC(C)N(CCC(C(N)=O)(c1ccccc1)c1ccccn1)C(C)C (stereo not drawn) ; what normalized growth value has been reported?
Reply: 0.973

Task item: Suppose we examine the compound COc1ccc(-c2oc3cc(O[C@H]4O[C@H](CO)[C@@H](O)[C@H](O)[C@H]4O)c(OC)c(O)c3c(=O)c2OC)cc1O ; what normalized growth value has been reported?
Reply: 0.98

Task item: Suppose we examine the compound C[C@@H]1O[C@@H](OC[C@H]2OC(Oc3c(-c4ccc(OCCO)c(OCCO)c4)oc4cc(OCCO)cc(O)c4c3=O)[C@H](O)[C@@H](O)[C@@H]2O)[C@H](O)[C@H](O)[C@H]1O (stereo partly drawn) ; what normalized growth value has been reported?
Reply: 0.978

Task item: Suppose we examine the compound C[C@@H]1O[C@@H](OC[C@H]2OC(Oc3c(-c4ccc(O)c(O)c4)oc4cc(O)cc(O)c4c3=O)[C@H](O)[C@@H](O)[C@@H]2O)[C@H](O)[C@H](O)[C@H]1O (stereo partly drawn) ; what normalized growth value has been reported?
Reply: 1.01

Task item: Suppose we examine the compound COc1ccc2ccc(=O)oc2c1 ; what normalized growth value has been reported?
Reply: 1.01

Task item: Suppose we examine the compound C[C@@H]([C@H](O)c1ccccc1)N(C)C ; what normalized growth value has been reported?
Reply: 0.999
